Tested on: K4 kissing-loop RNA reporter;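 also: bound reporter read as fluorescence of individual clusters on recovered sequencing chips by microscopy, with normalized cluster intensities fitted with a binding model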
Experiment: apparent KD of K4 kissing-loop reporter; higher = weaker reporter binding
Conditions: Eterna round: R107; input ligand: FMN 200 uM
Overview of reported apparent KD of K4 kissing-loop reporter across a group of sequences:

Biopolymer Sequence	apparent KD of K4 kissing-loop reporter
GGGUCUGCCGGAAGGAGCGCACUAUGGAGUGAUGUUCCAUGACCGCACAGCUUGCGGUCAGUGCAGGUAGGUCGCCGGUAGCGUU [Inesor]	163 nM
UCGAGUGAUGUUCGAUUUCAGUGAAGAGAUACCAGCCGCAGUGUAGGCCCUUGGCAGCUCGGCUAUUAUGACAUAUGCAGUUUAG [theeternabot_sameState_KL_Theo_A_29]	125 nM
UACAAACGUAGUGAUGUUACGUACUCUGAUACCAGACAACUCUAAGUCCCUUGGCAGCAGUCACUUAGCUUAUUAUUUUCUCAAA [JR_Nu_ExcTheophyA_Sub026]	106 nM
ACGAUUUACAGAAGGAGCGUGUAUUUAUCUACAAUUUUCUUAGCGAGUGAUGUUCGUUAUACACAGGUAGGUCGCUGUAUAUCGA [JR_ExcArginiB_Sub013]	185 nM
GGGCAUGAUACGAUAAAAUAGUGGAGAGAUACCAGCGUUUUAGAUCGCCCUUGGCAGCUCUCGAGUGAUGUUCGGGUAGCUCUGA [Onedra]	101 nM
AGUGUUAGGUUAGAUACCAGCCGUCUGUGGAUAAUCCACAGACCGCCAGUGAUGUUGGCAGGCCCUUGGCAGCUAACAGGACAGA [Riedingeus]	239 nM
CAUACGCAUGGAGGAUAUGAGAAUUCUCAUGUCAUUUAAUAUUCUCAGUGAUGUUGAGGAUGUGGCUCAGAAGGCCAUGUGUAUG [Ex FMN B 21]	205 nM
CGUAGCAGACGAAGGAGCGGCUACCUGAUUCAAGGUGAUGCUUGAGUGAUGUUCAGGUGUAGCCAGGUAGGUCGCGUCUGCUACG [Arg B Ex t9]	201 nM
GGAUAGGACAGAGGAUAUGGAGAGUCUACAAAGUAGGCUCAUAAUCCUUGAAUGGAAGUGAUGUUUCCAGAAGGCUGUCCUAUCG [FmnBX 17 - #SwitchBubble #StaticStem #Palindromic]	664 nM
UUAGUCUAGAGAGGAUAUCAGUGAUGUUGAUAUCAAGAUCUAAGAUAGAAUUCUAUCUUAGAUCAAUGAGAAGGCUCUAGACAUU [AK1.1 Exc FMN B]	993 nM
GUGUCCUAGUCGGCCGCCACUGGGUGCAAAAUAGAAGGAGCAUUGCACAUCAGUGAUGUUGAUGUCAGGACCGGGACUAGGGUGU [KL-SSTryp-B5 Brourdwalk1]	652 nM
AAAUUUAUAUUAGAUACCAGUUUAUUGGAUGUAAAUUAUGACAUGAGUGAUGUUCAUGUAAGCCCUUGGCAGCUGGUAUGGGUUU [KL-XTheo-B22]	132 nM
UUUAACGAGUGAUGUUCGAAAAGUAAUGGUGAGGAUAUCGUUUUUUCGAGAAGGCACCUCGAAGUGAUACGAAAGUAUCGCUUCG [FMN A 3]	172 nM
GGCUAGACUUAGCUAGGUACAUAAUACGAUACCAGUCUAGAAAUAGACCCUUGGCAGCGUAGGCAGUGAUGUUGCCACUAGCUGA [Theo B SS t7]	104 nM
AAACAUCACUGGGAGUGAUGUUCUCAGUGACGAGGACCGGUACGGCCGCCACUCGCGAGAGAUUUAGUCUAGUCUUGACUGCAUU [Excl Tryptophan A V12]	299 nM
UAAGAAUAGCAUGCAGUGAUGUUGCAUGUCCGAGGACCGGUACGGCCGCCACUCGAGUCCUCGAACAUGCACCGAGGAAUAACAA [#19 K4 Tryptophan A Same State]	108 nM
GUAUCGCUAGGAGGAUAUUUCAAUUUGACUCUUUGAGUUAAUACGGAGUGAUGUUCCGUUUUACGGAAAGAAGGCCUAGUGAUAC [FMN B 14]	115 nM
AAAAUAAAGGAGUGAUGUUCCAUAACGGAUACCAGCCACGAAAGUGGCCCUUGGCAGCUGUGCCAGUGGACGAAUAACGUCCACA [#OpenEnded 6 #StaticStem #K4Early]	164 nM
AUUAUCAAUUUAUUAUAUAACUUUUCAGAAGGAGCGUGGAAGUACACAGGUAGGUCGCUGAAUAUAGGACUAGUGAUGUUAGUUA [JR_Nu_SSArginiA_Sub024]	236 nM
UGCUUUAGAAUACAAGGUAUUUACACUGAUACCAGUCAGUUAAAUGACCCUUGGCAGCAGUGUCAGUGAUGUUGACACAACACAU [Theo A Ex t4]	183 nM
CCUUUAGGCUCGGCCGCCACUCCAGUGAUGUUGGAGGUGCGUACAGAGCUAGAAAGCGUUAUCAGGAGGACCGGGAGUUUUAACG [Leorte]	98.3 nM
ACGGGUCGACGAAGGAGCGCCGUGCAGUGAUGUUGCAGUUAGAUCCAGUGAUGUUUGGGCCGGCAGGUAGGUCGCGUCGACUCAU [Exclusion Arginine B GF 21]	344 nM
AAUAUGAAGCAGUGAUGUUGCUUAUGAGAAGGAGCGCACGAAAGUGCAGGUAGGUCGCUCAGCCAAGUGGACGAAAACGUCCACA [whbob_SS_Arginine_A_sa107]	98.3 nM

Origin of measurements: the supplement of paper PMC9170038
